Each recorded value in this set is attributed to paper PMC5540273.

# System: RSK3(Kin.Dom.1-N-terminal)
# Construct: gene RPS6KA2
# details: concentration: 1 μM,replicates: in singlicate; n = 1;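 note: KINOMEscan kinase panel screen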
measured-metric: %Inh (%)
Give the value in % but do not write % after it.

Study these solved cases before continuing.
{"test-smiles": "c1ccc(Oc2ccc(Nc3ccnc4ccc(-c5ccccn5)cc34)cc2)cc1", "measured-value": 19}
{"test-smiles": "Cc1n[nH]c2cc(Nc3ccnc(Nc4cccc(CN5CCOCC5)c4)n3)ccc12", "measured-value": 0}
{"test-smiles": "CCCC(=O)Nc1n[nH]c2ncccc12", "measured-value": 0}
{"test-smiles": "CC(C)S(=O)(=O)N1CCN(Cc2ccc3c(c2)nc(NC(=O)c2ccsc2)n3C[C@H](O)c2ccccc2)CC1", "measured-value": 93.5}

// next item, %Inh requested
For the molecule COc1cc2c(Nc3ccc(NC(=O)c4ccccc4)cc3)ncnc2cc1OCCCN1CCOCC1 , give its reported %Inh.
0

====

# System: ACVRL1
# details: concentration: 1 μM,replicates: in singlicate; n = 1
measured-metric: %Inh (%)
Express the result in % but write the number alone.

Worked cases, answers included:
{"compound": "O=C(NOCC1CC1)c1cc(Br)c(F)c(F)c1Nc1ccc(I)cc1Cl", "test-target": "ACVRL1", "%Inh [%]": 0}
{"compound": "CS(=O)(=O)Nc1ccc(-c2ccnc3[nH]ccc23)cc1 [GSK993273]", "test-target": "ACVRL1", "%Inh [%]": 0}
{"compound": "C[C@@H](Oc1cc(-n2cnc3ccc(-c4ccncc4)cc32)sc1C(N)=O)c1ccccc1Cl [GSK483724]", "test-target": "ACVRL1", "%Inh [%]": 0}
{"compound": "O=C(Nc1ccc(Oc2ccc3nc(NC(=O)C4CC4)cn3n2)c(F)c1)c1cccn(-c2ccccc2)c1=O", "test-target": "ACVRL1", "%Inh [%]": 1}
{"compound": "CCN1CCN(CCCC(=O)Nc2n[nH]c3nc(-c4ccc(O)cc4)c(Br)cc23)CC1 [SB-731579]", "test-target": "ACVRL1", "%Inh [%]": 63}

Look up %Inh of N#Cc1cccc(C(=O)NC2CCN(c3ccnc(Nc4ccc(F)cc4)n3)C2)c1 (centres unmarked) [GSK1379708] and report it.
0

Given COc1cc2c(Nc3ccc(NC(=O)c4ccccc4)cc3)ncnc2cc1OCCCN1CCOCC1 [GSK301329] , respond with its %Inh.
0

Read off the recorded %Inh for CC(=O)Nc1nc2cnc(Nc3cc(NC(=O)c4cccc(CC(C)(C)C#N)c4)ccc3C)nc2s1
0

====

# Tested on: NIM1
# Construct: gene MGC42105
# details: concentration: 1 μM,replicates: in singlicate; n = 1
Output Condition met for %Inh not less than 10%; output Condition not met otherwise.

{"molecule": "CS(=O)(=O)Nc1ccc(-c2ccnc3[nH]ccc23)cc1", "test-target": "NIM1", "class-name": "Condition met"}

Quick check: does NC(=O)Nc1sc(-c2ccc(F)cc2)cc1C(N)=O have %Inh greater than or equal to 10%?
Condition met

Would you say COC(=O)c1cccc(NC(=O)NC2CCN(c3ccnc(Nc4cc(OC)c(OC)c(OC)c4)n3)C2)c1 (stereo not drawn) shows %Inh at minimum 10%?
Condition met

Does the molecule CNC(=O)c1ccccc1Nc1nc(Nc2cccc(CS(C)(=O)=O)c2)ncc1C.O=CO have recorded %Inh that is 10% or more?
Condition met

Textbook exercise: given the entry COc1cccc(C2=C(Nc3cccc(Cl)c3)C(=O)NC2=O)c1 , state whether its %Inh is greater than or equal to 10%.
Condition not met

Is the recorded value of %Inh equal to or greater than 10% for this molecule? CC(C)c1nc(-c2cccc(NS(=O)(=O)c3ccccc3)c2)c(-c2ccnc(Nc3ccc4c(c3)CN(C)CC4)n2)s1
Condition met

hey, is %Inh for this one >= 10%? CS(=O)c1ccc(-c2coc3ccc(-c4n[nH]c(=O)o4)cc23)cc1 (stereo not drawn)
Condition not met

Is the recorded value of %Inh equal to or greater than 10% for this molecule? Cn1ccc2ncnc(Oc3ccc(NC(=O)Nc4cncc(C(F)(F)F)c4)c(Cl)c3)c21
Condition not met

====

# Tested on: MEK4
# Construct: gene MAP2K4
# details: concentration: 1 μM,replicates: in singlicate; n = 1
For each record, check the reported %Inh: if it is below 20% write 1, else write -1.

Lab note: %Inh threshold 20%. Does this molecule come in strictly under it? Cn1ccc2ncnc(Oc3ccc(NC(=O)Nc4cccc(C(F)(F)F)c4)c(Cl)c3)c21
1

Is %Inh of Cn1ccc2ncnc(Oc3ccc(NC(=O)Nc4cnn(C(C)(C)C)c4)c(Cl)c3)c21 strictly below 20%?
1

Consider the molecule CCN1CCN(CCCC(=O)Nc2n[nH]c3nc(-c4ccc(O)cc4)c(Br)cc23)CC1 [SB-731579] . Is its %Inh strictly less than 20%?
1

Please determine if O=C(NCC1CC1)c1ccc(-c2cc(C(=O)NC3CC3)ccc2F)cc1 [GW810445] is below 20% in terms of %Inh.
1

hey, is %Inh for CSc1nccc(-c2c(-c3ccc(F)cc3)ncn2CCCN2CCOCC2)n1.Cl [SB-217146] lower than 20% or not?
1

Threshold test, %Inh < 20%: Cc1ccn2nc(-c3ccc(F)cc3)c(-c3ccncc3)c2c1.Cl [GW457859]
1

====

# Test system: SGK2
# details: concentration: 1 μM,replicates: in singlicate; n = 1
measured-metric: %Inh (%)
Field: numeric (%). Do not append units.

Some compounds with recorded %Inh:
{"test-smiles": "NC(=O)Nc1sc(-c2ccc(F)cc2)cc1C(N)=O", "measured-metric": "%Inh", "measured-value": 10}
{"test-smiles": "Cn1ccc2ncnc(Oc3ccc(NC(=O)Nc4cc(C(C)(C)C)on4)c(Cl)c3)c21", "measured-metric": "%Inh", "measured-value": 24}
{"test-smiles": "COc1cc2c(Nc3ccc(NC(=O)c4ccccc4)cc3)ncnc2cc1OCCCN1CCOCC1", "measured-metric": "%Inh", "measured-value": 2}
{"test-smiles": "CCn1c(-c2nonc2N)nc2cncc(CNC3CCNCC3)c21.Cl", "measured-metric": "%Inh", "measured-value": 7}
{"test-smiles": "O=C(Nc1ccccc1)c1cccc(Oc2ccc3nccn3n2)c1", "measured-metric": "%Inh", "measured-value": 18}

# lookup: SGK2 %Inh, key = Cn1ccc2ncnc(Oc3ccc(NC(=O)Nc4ccnc(C(F)(F)F)c4)c(Cl)c3)c21
10

Answer with %Inh of CCn1c(-c2nonc2N)nc2cncc(Br)c21 measured for SGK2.
0

Specify %Inh for COc1cc2ncn(-c3cc(OCC4CCCCC4)c(C(N)=O)s3)c2cc1OC , system SGK2.
0

// fetch %Inh for Cc1cccc2c(-c3ccncc3)c(-c3ccc(F)cc3)nn12.Cl ; system: SGK2
8

====

The compounds listed here are annotated with their %Inh.
# System: MLK1
# Construct: gene MAP3K9
# details: concentration: 1 μM,replicates: in singlicate; n = 1
# output: bare number, implied unit %

The following compounds have reported results that may help.
{"compound": "CCN1CCN(CCCC(=O)Nc2n[nH]c3nc(-c4ccc(O)cc4)c(Br)cc23)CC1", "test-target": "MLK1", "measured-value": 0}
{"compound": "CN1CCN(CCNc2nc3cc(Oc4ccc(NC(=O)Nc5cc(C(F)(F)F)ccc5F)cc4)ccc3[nH]2)CC1.Cl.Cl", "test-target": "MLK1", "measured-value": 0}
{"compound": "CN1CCN(CCCNc2nccc(-c3c(-c4ccc(F)cc4)nn4cc(C(N)=O)ccc34)n2)CC1", "test-target": "MLK1", "measured-value": 0}

Determine from records and report %Inh for CCCC(=O)Nc1n[nH]c2ncccc12
0

Fill in %Inh for record Nc1nccc(-c2ccc3c(N)n[nH]c3c2)n1
0

Provide measured %Inh value, entry: CCNCC(Cc1ccccc1)NC(=O)c1cc(Br)c(-c2ccnc3[nH]ccc23)s1.Cl.Cl (stereo not drawn)
0

Supply measured %Inh of O=C(Nc1ccccc1)c1cccc(Oc2ccc3nccn3n2)c1 in your reply.
0

Hello, please tell me recorded %Inh for this one: C[C@@H]1CNc2c(sc3ccc4nc(-c5ccncc5)ccc4c23)C(=O)N1
2

Note down %Inh recorded for CS(=O)c1ccc(-c2coc3ccc(-c4n[nH]c(=O)o4)cc23)cc1 (stereo not drawn)
9

====

# System: BRK
# Construct: gene PTK6
# details: concentration: 1 μM,replicates: in singlicate; n = 1
Param threshold (4%) applies to %Inh; output 1 when value >= threshold, -1 when value < threshold.

See these solved cases before continuing.
{"molecule": "Cn1ccc2ncnc(Oc3ccc(NC(=O)Nc4cncc(C(F)(F)F)c4)c(Cl)c3)c21", "class-name": -1}
{"molecule": "CN(c1ccccc1CNc1nc(Nc2ccc3c(c2)CC(=O)N3)ncc1C(F)(F)F)S(C)(=O)=O", "class-name": -1}
{"molecule": "O=C(Nc1ccccc1)c1cccc(Oc2ccc3nccn3n2)c1", "class-name": -1}
{"molecule": "C[C@@H]1CNc2c(sc3ccc4nc(-c5ccc(O)cc5)ccc4c23)C(=O)N1", "class-name": -1}
{"molecule": "CCOC(=O)N1CCC(n2cnc(-c3ccc(F)cc3)c2-c2ccnc(N)n2)CC1 [SB-219952]", "class-name": -1}

Does %Inh meet or surpass 4% for COC(=O)Nc1nc2cc(Oc3ccc(NC(=O)Nc4cc(C(F)(F)F)ccc4Cl)cc3)ccc2[nH]1.Cl [GW697465] ?
1
